Entry source: patent US20230002503A1

# study_system: human CAIX antigen (purchased from AcroBiosystems) (human, UniProt Q16790 38-414)
# assay_method_text: BLI (ForteBio), antibody on AHQ sensor, 100 nM antigen, 1:1 model
readout_type: kon (M⁻¹ s⁻¹)
Kindly provide the numeric value in M⁻¹ s⁻¹ only, without the unit symbol.

Example entries and their recorded answers appear below.
- H-YE-33 (Fc fusion, also called CAIX nanobody H-YE-33; not shown: human IgG1 Fc segment) QVQLQESGGGLVQPGGSLRLSCAASGGDFRFYDMGWYRQAPGKQRELVAGITTRGYTNYADVVKGRFTISRDNAKNTVYLEMNSLKPEDTAVYSCSASHFLGGRIDYWGQGTQVTVSS: 682000
- H-YE-25 (Fc fusion, also called CAIX nanobody H-YE-25; not shown: human IgG1 Fc segment) QVQLQESGGGLVQPGGSLRLSCAASGNSVNIFRFAAMAWYRQAPGKQRELVAVITTTGGTKYSDSVKGRFTISRDSAKNTVLLQMNSLKPEDTAVYYCNADYLQDYWGQGTQVTVSS: 875000
- H-YE-24 (Fc fusion, also called CAIX nanobody H-YE-24; not shown: human IgG1 Fc segment) QVQLQESGGGLVQPGGSLRLSCAASGNSVNIFRFAAMAWYRQAPGKQRELVAVITSAGGTKYSDSVKGRFTISRDNAKNTVLLQMNSLKPEDTAVYYCNADYLQDYWGQGTQVTVSS: 594000
- H-YE-37 (Fc fusion, also called CAIX nanobody H-YE-37; not shown: human IgG1 Fc segment) QVQLQESGGGLMHDGDSLRLSCAASGRTFSTYAMGWFRQAPGKEREFVAAISWSGGSTYYADSVKGRFTISRDNAKNTVYLQMNSLKPEDTAVYYCAAEGIYNSGSSYHDANGYDYWGQGTQVTVSS: 1.04e+06
- H-YE-40 (Fc fusion, also called CAIX nanobody H-YE-40; not shown: human IgG1 Fc segment) QVQLQESGGGLVQAGGSLRLSCAASGRTFSSYAMGWFRQAPGKEREFVATISWNGGSTYYADSVKGRFTISRDNAKNTVYLQMNSLKPEDTAVYYCAAEHDLGELAGTGYDYWGQGTQVTVSS: 495000
- H-YE-04 (Fc fusion, also called CAIX nanobody H-YE-04; not shown: human IgG1 Fc segment) QVQLQESGGGLVQPGGSLRLSCTASTSSFNFQTLGWYRQAPGNQRELVATITSRAITNYADSVKGRFTISRDNAAKTVSLQMNSLKPEDTAVYYCNAAWIGDYWGQGTQVTVSS: 919000

# binder H-YE-26 (Fc fusion, also called CAIX nanobody H-YE-26; not shown: human IgG1 Fc segment) QVQLQESGGGLVQAGGSLRLSCAASGNSVNIFRFATVAWYRQAPGEQRELVAVITSAGGTKYSDSVKGRFTISRDNAKNTVLLQMNSLKPEDTAVYYCNADFLQDYWGQGTQVTVSS ; its kon = 999000

# binder H-YE-05 (Fc fusion, also called CAIX nanobody H-YE-05; not shown: human IgG1 Fc segment) QVQLQESGGGLVQPGGSRRLSCAASGNSVNIFSFAAVAWYRQAPGKQRELVAVITTTGGTKYSDSVKGRFTISRDSAKNTVLLQMNSLKPEDTAVYYCNADYLQDYWGQGTQVTVSS ; its kon = 1.19e+06

# binder H-YE-38 (Fc fusion, also called CAIX nanobody H-YE-38; not shown: human IgG1 Fc segment) QVQLQESGGGLMQPGGSLTLSCAVPRFTLDYYAIGWFRQAPGKEREFVAAISWSGGTTQYSDSAKGRFTISRDNSKNTGYLQMNSLKPEDTATYYCAAGRQLEWRTYDYWGQGTQVTVSS ; its kon = 969000

# binder H-YE-32 (Fc fusion, also called CAIX nanobody H-YE-32; not shown: human IgG1 Fc segment) QVQLQESGGGLVQPGGSLRLSCAASGGARNIFSFAAMAWYRQAPGKQRELVAVITSAGGTQYSSSVKGRFTISRDNAKKTVLLQMNSLKPEDTAVYYCNADYYQDYWGQGTQVTVSS ; its kon = 988000

# binder H-YE-03 (Fc fusion, also called CAIX nanobody H-YE-03; not shown: human IgG1 Fc segment) QVQLQESGGGLVQPGGSLRLSCTASTSSFNFQTMGWYRQAPGKQRELVATITSRAITNYADSVKGRFTISRDNAAKTVSLQMNSLKPEDTAVYYCNAAWIGDYWGQGTQVTVSA ; its kon = 1.24e+06

# binder H-YE-23 (Fc fusion, also called CAIX nanobody H-YE-23; WYE-23; not shown: human IgG1 Fc segment) QVQLQESGGGLVQPGGSLRLSCAASGNSANIFSFASVAWYRQAPGKQRELVAVITSAGGTKYSDSVKGRFTISRDNAKNTILLQMNSLKPEDTAVYYCNVDYLQDYWGQGTQVTVSS ; its kon = 917000
